System: E18 rat cortical neuron-glia co-culture;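 note: MBP fiber length per Olig2+ nucleus over MBP area × intensity per Olig2+ nucleus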
Assay protocol: fiber score / MBP score (myelination specific beyond OL differentiation) (ratio); higher = more myelination-specific MBP alignment
Test parameters: 1 µM; treatment time: 8 days (DIV5-DIV13)
Measurement kind: fiber score / MBP score
# respond with the number and nothing more

Field: example entries. Status: answers known.
[[record]]
compound = "COc1cc2c(cc1OC)C(=O)C(CC1CCN(Cc3ccccc3)CC1)C2 (stereo not given)"
measured_on = "E18 rat cortical neuron-glia co-culture"
recorded_number = 0.462

[[record]]
compound = "CC(=O)Nc1ccc(CC(=O)O)cc1"
measured_on = "E18 rat cortical neuron-glia co-culture"
recorded_number = 0.756

[[record]]
compound = "CNS(=O)(=O)Cc1ccc2[nH]cc(CCN(C)C)c2c1"
measured_on = "E18 rat cortical neuron-glia co-culture"
recorded_number = 0.873

[[record]]
compound = "Fc1cncnc1"
measured_on = "E18 rat cortical neuron-glia co-culture"
recorded_number = 0.595

[[record]]
compound = "CO/N=C(\\C(=O)N[C@@H]1C(=O)N2C(C(=O)O)=C(COC(C)=O)CS[C@H]12)c1csc(N)n1"
measured_on = "E18 rat cortical neuron-glia co-culture"
recorded_number = 0.651

[[record]]
compound = "Nc1ccc2cn[nH]c2c1"
measured_on = "E18 rat cortical neuron-glia co-culture"
recorded_number = 0.529


// query Look up fiber score / MBP score for this compound: Oc1ccc(/C=C/c2cc(O)cc(O)c2)cc1
// result 0.549

----------
Catalogue of fiber score / MBP score values
Test system: E18 rat cortical neuron-glia co-culture;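 note: MBP fiber length per Olig2+ nucleus over MBP area × intensity per Olig2+ nucleus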
Assay protocol: fiber score / MBP score (myelination specific beyond OL differentiation) (ratio); higher = more myelination-specific MBP alignment
Test parameters: 5 µM; treatment time: 8 days (DIV5-DIV13)
# respond with the number and nothing more

// query Look up fiber score / MBP score for this molecule: C=C1/C(=C\C=C2/CCC[C@]3(C)[C@@H]([C@H](C)CCCC(C)(C)O)CC[C@@H]23)C[C@@H](O)C[C@@H]1O
// result 0.531

----------
Tested on: E18 rat cortical neuron-glia co-culture;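 note: MBP fiber length per Olig2+ nucleus over MBP area × intensity per Olig2+ nucleus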
Assay protocol: fiber score / MBP score (myelination specific beyond OL differentiation) (ratio); higher = more myelination-specific MBP alignment
Test parameters: 1 µM; treatment time: 8 days (DIV5-DIV13)
Measurement kind: fiber score / MBP score
# respond with the number and nothing more

[[record]]
structure_smiles = "CCCc1nc(C(C)(C)O)c(C(=O)O)n1Cc1ccc(-c2ccccc2-c2nnn[nH]2)cc1"
measured_on = "E18 rat cortical neuron-glia co-culture"
recorded_number = 0.778

[[record]]
structure_smiles = "CCCSc1ccc2[nH]c(NC(=O)OC)nc2c1"
measured_on = "E18 rat cortical neuron-glia co-culture"
recorded_number = 0.797


We now examine a further compound.
// query Look up fiber score / MBP score for this compound: CC(=O)[C@@]1(O)CC[C@H]2[C@@H]3C[C@H](C)C4=CC(=O)C=C[C@]4(C)[C@@]3(F)[C@@H](O)C[C@@]21C
// result 0.809

----------
Tested on: E18 rat cortical neuron-glia co-culture;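 note: MBP fiber length per Olig2+ nucleus over MBP area × intensity per Olig2+ nucleus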
Assay protocol: fiber score / MBP score (myelination specific beyond OL differentiation) (ratio); higher = more myelination-specific MBP alignment
Test parameters: 1 µM; treatment time: 8 days (DIV5-DIV13)
Catalogue of fiber score / MBP score values

Field: example entries. Status: answers known.
[[record]]
compound = "OCc1cc(C(O)CNCCCCCCOCCCCc2ccccc2)ccc1O (configuration not stated) [Salmeterol]"
measurement_kind = "fiber score / MBP score"
result = 0.225

[[record]]
compound = "CCN1CCCC1CNC(=O)c1cc(S(=O)(=O)CC)ccc1OC (configuration not stated) [Sultopride]"
measurement_kind = "fiber score / MBP score"
result = 0.758


// query Look up fiber score / MBP score for this compound: O=C(O)/C=C/c1ccc(Cn2ccnc2)cc1 [Ozagrel]
// result 0.768

// query Look up fiber score / MBP score for this compound: COc1ccccc1OCC(O)COC(N)=O (configuration not stated) [Methocarbamol]
// result 0.67

// query Look up fiber score / MBP score for this compound: CN1[C@@H](CC(=O)c2ccccc2)CCC[C@H]1C[C@H](O)c1ccccc1 [Lobeline]
// result 0.981

Cited source: the supplement of paper PMC4840960
